This collection of values is drawn from patent US20200040358A1.

molecular target: T1, NY-ESO-1 peptide on HLA-A*02:01 (human); assay: multimer staining
T1 peptide: SLLMWITQC

{"BINDER": "TCR18168 (TCR, V domains shown) Valpha: QSVAQPEDQVNVAEGNPLTVKCTYSVSGNPYLFWYVQYPNRGLQFLLKYITGDNLVKGSYGFEAEFNKSQTSFHLKKPSALVSDSALYFCAVRELYSGAGSYQLTFGKGTKLSVIP Vbeta: QKPSRDICQRGTSLTIQCQVDSQVTMMFWYRQQPGQSLTLIATANQGSEATYESGFVIDKFPISRPNLTFSTLTVSNMSPEDSSIYLCSVGGAGVTDTQYFGPGTRLTVL", "binding result": "recognises"}
{"BINDER": "TCR0070 (TCR, V domains shown) Valpha: QSVAQPEDQVNVAEGNPLTVKCTYSVSGNPYLFWYVQYPNRGLQFLLKYITGDNLVKGSYGFEAEFNKSQTSFHLKKPSALVSDSALYFCAVRELYSATVDYQLTFGKGTKLSVIP Vbeta: QKPSRDICQRGTSLTIQCQVDSQVTMMFWYRQQPGQSLTLIATANQGSEATYESGFVIDKFPISRPNLTFSTLTVSNMSPEDSSIYLCSVGGAGVTDTQYFGPGTRLTVL", "binding result": "recognises"}
{"BINDER": "TCR0022 (TCR, V domains shown) Valpha: QSVAQPEDQVNVAEGNPLTVKCTYSVSGNPYLFWYVQYPNRGLQFLLKYITGDNLVKGSYGFEAEFNKSQTSFHLKKPSALVSDSALYFCAVRDDLVGAGSYQLTFGKGTKLSVIP Vbeta: QKPSRDICQRGTSLTIQCQVDSQVTMMFWYRQQPGQSLTLIATANQGSEATYESGFVIDKFPISRPNLTFSTLTVSNMSPEDSSIYLCSVGGAGVTDTQYFGPGTRLTVL", "binding result": "recognises"}
